Reference source for all entries: patent US7923465B2

molecular target: hCB1 (Homo sapiens); assay: In vitro binding assay using hCB1-CHO membranes, [3H]-CP-55,940 displacement (Protocol II); set-up: expressed in transfected cells; host or cells: CHO (hCB1-CHO, generated in-house)
Sequence (P21554 whole entry): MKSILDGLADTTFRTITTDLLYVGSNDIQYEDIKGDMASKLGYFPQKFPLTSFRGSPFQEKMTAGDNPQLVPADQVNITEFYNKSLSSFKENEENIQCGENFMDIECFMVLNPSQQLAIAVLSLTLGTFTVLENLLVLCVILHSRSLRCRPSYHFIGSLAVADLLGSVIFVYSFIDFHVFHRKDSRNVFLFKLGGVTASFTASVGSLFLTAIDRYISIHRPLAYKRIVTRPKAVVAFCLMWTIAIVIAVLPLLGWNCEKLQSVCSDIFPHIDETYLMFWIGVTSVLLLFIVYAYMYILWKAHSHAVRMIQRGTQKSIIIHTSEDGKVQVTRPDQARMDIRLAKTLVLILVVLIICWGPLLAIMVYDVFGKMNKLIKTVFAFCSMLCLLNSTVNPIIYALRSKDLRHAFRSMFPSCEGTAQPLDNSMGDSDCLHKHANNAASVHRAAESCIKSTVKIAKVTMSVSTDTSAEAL
Parameter % Displacement Protocol II: see the listing below.

- molecule: "O=C(NC12CC3CC(CC(C3)C1)C2)c1nn(-c2ccc(F)cc2F)c2c1C1CC3CC(C1)CC2C3"
  % Displacement Protocol II, %: 40.13
- molecule: "O=C(c1nn(-c2ccccc2)c2c1C1CC3CC(C1)CC2C3)N1CCCCC1"
  % Displacement Protocol II, %: 19.37
- molecule: "O=C(NN(c1ccccc1)c1ccccc1)c1nn(-c2ccc(Cl)cc2)c2c1C1CCC2C1 (centres unmarked)"
  % Displacement Protocol II, %: 55.25
- molecule: "COC(=O)[C@@H](NC(=O)c1nn(-c2ccc(F)cc2F)c2c1C1CC3CC(C1)CC2C3)c1ccccc1"
  % Displacement Protocol II, %: 96.65
- molecule: "CC1(C)[C@@H]2CC[C@@](C)(C2)[C@@H]1NC(=O)c1nn(-c2ccc(F)cc2F)c2c1C1CC3CC(C1)CC2C3"
  % Displacement Protocol II, %: 54.01

====

Parameter inhibition at 0.3 µM: see the listing below.
Target: hCB2 (Homo sapiens, UniProt P34972)
Sequence (P34972 whole entry): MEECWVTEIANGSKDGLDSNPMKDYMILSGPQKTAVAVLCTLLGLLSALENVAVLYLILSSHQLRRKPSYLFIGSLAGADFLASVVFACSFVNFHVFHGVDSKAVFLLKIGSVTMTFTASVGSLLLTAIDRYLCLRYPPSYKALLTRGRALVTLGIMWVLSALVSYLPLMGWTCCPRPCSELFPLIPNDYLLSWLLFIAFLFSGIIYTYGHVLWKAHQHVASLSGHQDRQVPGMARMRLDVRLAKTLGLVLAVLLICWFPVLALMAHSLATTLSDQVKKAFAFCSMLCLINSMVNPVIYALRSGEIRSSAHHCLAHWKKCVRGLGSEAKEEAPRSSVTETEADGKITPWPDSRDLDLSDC
Experiment: In vitro binding assay using hCB2-CHO membranes, [3H]-CP-55,940 displacement (Protocol IV)
Parameters: expressed in transfected cells; host or cells: CHO (hCB2-CHO, generated in-house)
Details: 1 h, read-out: % Displacement Protocol IV
Experimental: IV. Protocol for In Vitro Assay Using hCB2-CHO Membranes: […] The assay was performed according to the modified method of Ross et al., 1999 (Br. J. Pharmacol. 128, 735-743). […] The non-specific binding was determined by 0.5 μM CP-55, 940. […] The reaction was stopped by rapid filtration under vacuum and the radioactivity on the filters was measured by liquid scintillation counting. The percent (%) displacement by a test ligand was calculated by comparing the specific bound values.

- compound: "CC1(NC(=O)c2nn(-c3ccc(F)cc3F)c3c2C2CCC3C2)C2CC3CC(C2)CC1C3 (centres unmarked)"
  inhibition at 0.3 µM (%): 94.2
- compound: "CC(C)(C)NC(=O)c1nn(-c2ccc(F)cc2)c2c1C1CCC2C1 (centres unmarked)"
  inhibition at 0.3 µM (%): 82.5
- compound: "CC12CCC(C1)C(C)(C)C2NC(=O)c1nn(-c2ccc(F)cc2F)c2c1C1CCC2C1 (centres unmarked)"
  inhibition at 0.3 µM (%): 95.9
- compound: "O=C(NC1CCCCC1)c1nn(-c2ccccc2Br)c2c1C1CCC2C1 (centres unmarked)"
  inhibition at 0.3 µM (%): 46
- compound: "CC(C)(C)NC(=O)c1nn(-c2ccc(F)cc2F)c2c1C1CCC2C1 (centres unmarked)"
  inhibition at 0.3 µM (%): 89.7
- compound: "CC(C)(NC(=O)c1nn(-c2ccc(F)cc2)c2c1C1CCC2C1)c1ccccc1 (centres unmarked)"
  inhibition at 0.3 µM (%): 92.3
- compound: "CC(C)(NC(=O)c1nn(-c2ccc(F)cc2F)c2c1C1CCC2C1)c1ccccc1Cl (centres unmarked)"
  inhibition at 0.3 µM (%): 100
- compound: "CC12CCC(C1)C(C)(C)C2NC(=O)c1nn(-c2ccc(F)cc2F)c2c1C1CCC2(C)C1(C)C (centres unmarked)"
  inhibition at 0.3 µM (%): 94.3
- compound: "O=C(NC(CO)c1ccccc1)c1nn(-c2ccc(F)cc2F)c2c1C1CCC2C1 (centres unmarked)"
  inhibition at 0.3 µM (%): 71.8
- compound: "O=C(NC1C2CC3CC(C2)CC1C3)c1nn(-c2ccc(F)cc2F)c2c1C1CCC2C1 (centres unmarked)"
  inhibition at 0.3 µM (%): 98.5
- compound: "O=C(NC12CC3CC(CC(C3)C1)C2)c1nn(-c2ccc(Cl)cc2Cl)c2c1C1CCC2c2ccccc21 (centres unmarked)"
  inhibition at 0.3 µM (%): 52.4
- compound: "CC(C)(NC(=O)c1nn(-c2ccc(F)cc2F)c2c1C1CC3CC(C1)CC2C3)c1ccccc1"
  inhibition at 0.3 µM (%): 79.2
- compound: "O=C(NC1CCCCC1)c1nn(-c2ccc(Cl)cc2)c2c1C1CC3CC(C1)CC2C3"
  inhibition at 0.3 µM (%): 75.1
- compound: "C[C@@H](NC(=O)c1nn(-c2ccc(F)cc2F)c2c1C1CC3CC(C1)CC2C3)c1ccccc1"
  inhibition at 0.3 µM (%): 37.1
- compound: "CCCCCNC(=O)c1nn(-c2ccc(F)cc2F)c2c1C1CCC2C1 (centres unmarked)"
  inhibition at 0.3 µM (%): 62.9
- compound: "CC(C)(C)NC(=O)c1nn(Cc2ccc(F)cc2)c2c1C1CCC2C1 (centres unmarked) [Example 335a]"
  inhibition at 0.3 µM (%): 96.5
- compound: "O=C(NCC1CCCO1)c1nn(-c2ccc(F)cc2F)c2c1C1CCC2C1 (centres unmarked)"
  inhibition at 0.3 µM (%): 43.4
- compound: "CC(C)(NC(=O)c1nn(-c2ccc(F)cc2)c2c1C1CC3CC(C1)CC2C3)c1ccccc1"
  inhibition at 0.3 µM (%): 88.5
- compound: "O=C(NCC1CC1)c1nn(-c2ccc(F)cc2F)c2c1C1CCC2C1 (centres unmarked)"
  inhibition at 0.3 µM (%): 64.9
- compound: "O=C(NCc1ccccc1Cl)c1nn(-c2ccc(Cl)cc2)c2c1C1CCC2C1 (centres unmarked)"
  inhibition at 0.3 µM (%): 75.7
- compound: "CCC(C)(C)NC(=O)c1nn(-c2ccc(F)cc2F)c2c1C1CCC2CC1"
  inhibition at 0.3 µM (%): 100
- compound: "O=C(NC12CC3CC(CC(O)(C3)C1)C2)c1nn(-c2ccc(F)cc2F)c2c1C1CC3CC(C1)CC2C3"
  inhibition at 0.3 µM (%): 89.3
- compound: "CC(C)(NC(=O)c1nn(-c2ccc(F)cc2F)c2c1C1CCC2c2ccccc21)c1ccccc1 (centres unmarked)"
  inhibition at 0.3 µM (%): 67.2
- compound: "CC(C)(C)NC(=O)c1nn(-c2ccc(Br)cc2)c2c1C1CCC2C1 (centres unmarked)"
  inhibition at 0.3 µM (%): 88.5
- compound: "O=C(NC1CC1)c1nn(-c2ccc(F)cc2F)c2c1C1CCC2C1 (centres unmarked)"
  inhibition at 0.3 µM (%): 16.9
- compound: "Cl.O=C(NNc1ccc(F)cc1)c1nn(-c2ccc(Cl)cc2)c2c1C1CC3CC(C1)CC2C3 [Example 131, hydrochloride]"
  inhibition at 0.3 µM (%): 10.8

====

Parameter inhibition: see the listing below.
target: UniProtKB P20272; assay: Rat CB1 receptor binding using brain membrane, [3H]SR141716A displacement (Protocol I); parameters: CB1 receptor present in a rat brain membrane preparation; from tissue; host or cells: rat brain membrane; dose or concentration left out as unconfirmed; settings: 1 h; rat brain membrane, [3H]SR141716A displacement; read-out: % Displacement Protocol I

- compound: "O=C(NCc1ccccc1Cl)c1nn(-c2ccc(Cl)cc2Cl)c2c1C1CCC2C1 (stereo not shown)"
  measured.target: "UniProtKB P20272"
  inhibition [%]: 47.7
- compound: "O=C(NCc1ccc(Cl)cc1)c1nn(-c2ccc(Cl)cc2Cl)c2c1C1CCC2C1 (stereo not shown)"
  measured.target: "UniProtKB P20272"
  inhibition [%]: 27.1
- compound: "CC(C)(C)c1ccc(NC(=O)c2nn(-c3ccc(Cl)cc3)c3c2C2CCC3C2)cc1 (stereo not shown)"
  measured.target: "UniProtKB P20272"
  inhibition [%]: 33.7
- compound: "O=C(NN(c1ccc(Cl)cc1Cl)C1CCCCC1)c1nn(-c2ccc(Cl)cc2)c2c1C1CC3CC(C1)CC2C3"
  measured.target: "UniProtKB P20272"
  inhibition [%]: 65.2

====

target: CB1 (Rattus norvegicus); assay: Rat CB1 receptor binding using brain membrane, [3H]SR141716A displacement (Protocol I); parameters: CB1 receptor present in a rat brain membrane preparation; from tissue; host or cells: rat brain membrane; dose or concentration left out as unconfirmed; details: 1 h; rat brain membrane, [3H]SR141716A displacement; read-out: % Displacement Protocol I
Sequence (P20272 whole entry): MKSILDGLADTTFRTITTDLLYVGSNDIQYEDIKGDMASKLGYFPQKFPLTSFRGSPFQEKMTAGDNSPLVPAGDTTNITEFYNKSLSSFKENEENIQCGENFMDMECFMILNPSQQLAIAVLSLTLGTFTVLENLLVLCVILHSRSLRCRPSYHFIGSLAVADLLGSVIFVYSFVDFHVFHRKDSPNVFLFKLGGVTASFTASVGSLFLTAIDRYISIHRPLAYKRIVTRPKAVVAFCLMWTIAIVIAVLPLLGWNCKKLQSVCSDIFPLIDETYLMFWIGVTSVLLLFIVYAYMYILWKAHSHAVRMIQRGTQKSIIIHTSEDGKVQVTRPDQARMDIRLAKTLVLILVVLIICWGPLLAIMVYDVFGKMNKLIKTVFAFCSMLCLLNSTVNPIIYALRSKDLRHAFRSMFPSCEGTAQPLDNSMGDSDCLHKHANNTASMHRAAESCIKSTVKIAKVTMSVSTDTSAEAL
assay.metric: inhibition (%)

- molecule: "O=C(NN1CCCCC1)c1nn(-c2ccc(F)cc2F)c2c1C1CC3CC(C1)CC2C3"
  measured.result: 102
- molecule: "O=C(Nn1cnnc1)c1nn(-c2ccc(Cl)cc2Cl)c2c1C1CCC2C1 (centres unmarked)"
  measured.result: 1.5
- molecule: "O=C(Nc1ccccc1)c1nn(-c2ccc(Cl)cc2)c2c1C1CCC2C1 (centres unmarked)"
  measured.result: 10.1
- molecule: "O=C(NCc1ccc(Br)cc1)c1nn(-c2ccc(Cl)cc2)c2c1C1CCC2C1 (centres unmarked)"
  measured.result: 31.1
- molecule: "O=C(NNc1ccccc1Cl)c1nn(-c2ccc(Cl)cc2Cl)c2c1C1CC3CC(C1)CC2C3"
  measured.result: 76.4
- molecule: "O=C(NN1CCCCC1)c1nn(-c2ccc(Cl)cc2Cl)c2c1C1CCC2c2ccccc21 (centres unmarked)"
  measured.result: 81.3
- molecule: "O=C(NN1CCCCC1)c1nn(-c2ccccc2Cl)c2c1C1CCC2C1 (centres unmarked)"
  measured.result: -12.7
- molecule: "O=C(NNc1ccccc1)c1nn(-c2ccc(Cl)cc2Cl)c2c1C1CC3CC(C1)CC2C3"
  measured.result: 67.1
